src = PubChem BioAssay (NCI)

Record form. Attribute: growth. Fill in for each entry.
system: SW-620 colon; experiment: NCI-60 one-dose screen, 48 h (100 = growth as untreated, 0 = no growth, -100 = all killed); settings: 10 µM unless noted
About 83,000 compounds went through this panel and 20% of them were active in at least one assay; those are over-represented in the sample as a whole.
One number for each entry, in %.

1. Cn1nc(C(F)(F)F)cc1-c1cc(Cl)c(OCc2ccc(Cl)cc2)c(-c2ccc(Cl)c(C(F)(F)F)c2)c1O | 12.2
2. Cc1ccc(/C=C/C(=N/N=C(N)N)c2ccccc2)cc1 | 25.9
3. CC1=C(C(=O)Nc2ccc(F)cc2)C(c2ccc(Cl)cc2)C2=C(CC(C)(C)CC2=O)N1 (centres undefined) | 94.6
4. NCCCOc1cc2ccccc2cc1C(=O)NCCCOc1cc2ccccc2cc1C(=O)Nc1ccc(Cl)cc1O | -73.9
5. Oc1ccc(CCCCCCc2ccc(O)cc2)cc1 | 58.1

// for each compound below, give its growth
1. [Ag].[Ag].[NH-]S(=O)(=O)c1ccc(N=Nc2cc(N=Nc3ccc(S([NH-])(=O)=O)cc3)c3c(NC(=O)C(Cl)Cl)cccc3c2OC(=O)C(Cl)Cl)cc1.[c-]1nccs1.[c-]1nccs1
2. Nc1nc(N)c2c(n1)NC(c1sc(Cl)nc1Cl)CC(c1ccc3c(c1)OCO3)=N2 (centres undefined)
3. COc1cc(C2C=C(C)N=C3SC=NN32)cc(OC)c1OC (centres undefined)
4. CCCCCNCCCCCNc1cc(OC)cc2cccnc12

stdout:
58.7
13.2
105
90.9

====

Tested on: MDA-MB-435 melanoma
Experiment: NCI-60 one-dose screen, 48 h (100 = growth as untreated, 0 = no growth, -100 = all killed)
Details: 10 µM unless noted
Description: Growth inhibition of the MDA-MB-435 human Melanoma tumor cell line is measured as a screen for anti-cancer activity. Cells are grown in 96 well plates and exposed to the test compound for 48 hours. Compounds are tested at a single concentration, which is 10^-5 M for most compounds. The reported endpoint is percent growth (GI% or GIPRCNT), where numbers from 0 - 100% represent growth inhibition, and numbers from -100% - 0 represent cell death. […]
The panel holds about 83,000 compounds, 20% with a hit somewhere; the sample as a whole holds those more often.
Record form. Attribute: growth. Fill in for each entry.
One number for each entry, in %.

Worked set:
1. NC(=S)N/N=C(/c1cccs1)C1CC1 | 87.4
2. COc1ccc(Br)c2ccccc12 | 105

// for each molecule below, give its growth
1. COc1cc(NCCCCC(C)N)c2nccc(C)c2c1 (configuration not stated)
2. COc1ccc(/C=C2\CCCC3=C2N=C2SC(C)=NN2C3c2ccc(OC)c(OC)c2)cc1OC (configuration not stated)
3. CC(OC(=O)Nc1cccc(Cl)c1)C(=O)O (configuration not stated)
4. CC1=C(C(=O)Nc2ccc(F)cc2)C(c2ccc(C)cc2)C2=C(CC(C)(C)CC2=O)N1 (configuration not stated)
5. O=C(/C=C/c1ccccc1)C(Br)C(Br)c1ccccc1 (configuration not stated)
6. Cc1ccc(N=CNN=C(N)N)cc1
7. CC(C)(C)CC(C)(C)NCc1cc(C(C)(C)C)cc(CNC(C)(C)CC(C)(C)C)c1O
8. COc1cc2c(cc1OC)C(=O)C(Br)CC2 (configuration not stated)

stdout:
[106, 11.6, 82.8, 94.9, -68.7, 112, 81.5, 20.2]

// for each molecule below, give its growth
1. COCCn1c(Nc2ccc(C(=O)NO)cc2)nc2ccccc21
2. COc1cc(-c2nc(-c3nc4cc(C(=O)c5ccccc5)ccc4[nH]3)cc3c2[nH]c2ccccc23)cc(OC)c1OC

stdout:
46
96.2
